experiment: Plasma protein binding in rat at 2 uM incubated for 1 hr by LC/MS analysis; type: ADME, cell-free; conditions: read-out: PPB (converted)
We begin with a simple list: items and their reported fraction unbound at 1 h, 2 µM.
No unit in the answer, please; the number alone is enough.

O=C(CCOC[C@@H]1CCN1c1cn[nH]c(=O)c1C(F)(F)F)N1CCN2c3ncc(C(F)(F)F)cc3OC[C@@H]2C1	0.044

Next up:
[Q] Look up fraction unbound at 1 h, 2 µM for this compound: C[C@@H](COCCC(=O)N1CCN(c2ncc(C(F)(F)F)cn2)CC1)Nc1cn[nH]c(=O)c1C(F)(F)F
[A] 0.233

====

We begin with a simple list: items and their reported solubility thermodynamic.
test: Thermodynamic solubility of compound at pH 6.5; type: physicochemical; conditions: buffer, read-out: Therm_solubility
Give the number first and the unit second.

C[C@@H](COCCC(=O)N1CCN(c2ncc(C(F)(F)F)cn2)CC1)Nc1cn[nH]c(=O)c1C(F)(F)F	54.6 µg/mL

[Q] Look up solubility thermodynamic for this compound: O=C(CCOC[C@@H]1CCN1c1cn[nH]c(=O)c1C(F)(F)F)N1CCN2c3ncc(C(F)(F)F)cc3OC[C@@H]2C1
[A] 113 µg/mL

====

assay: Tmax in fasted ICR mouse at 10 mg/kg, po measured for 24 hrs by LC-MS analysis; format: ADME, organism-based; details: in vivo
Endpoint Name: Tmax (min)
// units = min; emit number, no label

Some compounds with known Tmax results, for comparison:
O=C(CCOC[C@@H]1CCN1c1cn[nH]c(=O)c1C(F)(F)F)N1CCN2c3ncc(C(F)(F)F)cc3OC[C@@H]2C1	24
O=C(CCOC[C@@H]1CCN1c1cn[nH]c(=O)c1C(F)(F)F)N1CCN2c3ncc(Cl)cc3OC[C@@H]2C1	15

[Q] Look up Tmax for this compound: C[C@@H](COCCC(=O)N1CCN2c3ncc(C(F)(F)F)cc3OC[C@@H]2C1)Nc1cn[nH]c(=O)c1C(F)(F)F
[A] 15

[Q] Look up Tmax for this compound: C[C@@H](COCCC(=O)N1CCN2c3ncc(C(F)(F)F)cc3OC[C@@H]2C1)Oc1cn[nH]c(=O)c1C(F)(F)F
[A] 15

[Q] Look up Tmax for this compound: C[C@@H](COCCC(=O)N1CCN(c2ncc(C(F)(F)F)cn2)CC1)Nc1cn[nH]c(=O)c1C(F)(F)F
[A] 15

====

assay: AUC in fasted ICR mouse at 2 mg/kg, iv measured for 24 hrs by LC-MS analysis; format: ADME, organism-based; details: in vivo
Endpoint Name: AUC at 24 h (ng·h/mL)
// units = ng·h/mL; emit number, no label

Some molecules with known AUC at 24 h results, for comparison:
C[C@@H](COCCC(=O)N1CCN(c2ncc(C(F)(F)F)cn2)CC1)Nc1cn[nH]c(=O)c1C(F)(F)F	470
C[C@@H](COCCC(=O)N1CCN2c3ncc(C(F)(F)F)cc3OC[C@@H]2C1)Nc1cn[nH]c(=O)c1C(F)(F)F	274
O=C(CCOC[C@@H]1CCN1c1cn[nH]c(=O)c1C(F)(F)F)N1CCN2c3ncc(C(F)(F)F)cc3OC[C@@H]2C1	680
O=C(CCOC[C@@H]1CCN1c1cn[nH]c(=O)c1C(F)(F)F)N1CCN2c3ncc(Cl)cc3OC[C@@H]2C1	421

Next up:
[Q] Look up AUC at 24 h for this molecule: C[C@@H](COCCC(=O)N1CCN2c3ncc(C(F)(F)F)cc3OC[C@@H]2C1)Oc1cn[nH]c(=O)c1C(F)(F)F
[A] 682
